Origin of measurements: the supplement of paper PMC6555819

Test system: PPARg homodimer (NR concentration 180 nM)
Experiment: PBM binding z-score (relative to random genomic background probes); higher = stronger binding; sequences stand for … in GC…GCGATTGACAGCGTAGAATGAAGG
Assign criterion met whenever PBM binding z-score does not fall below 1; assign criterion not met whenever it does.

Query string: PBM binding z-score >= 1 for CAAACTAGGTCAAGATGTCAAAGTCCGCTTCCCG ?
Result string: criterion met

Query string: Does the reported PBM binding z-score for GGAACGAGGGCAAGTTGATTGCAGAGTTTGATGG fall at or above the 1 mark?
Result string: criterion not met

Query string: Please tell me: is the sequence CGAACTAGGTCATCTAGGACAGTGAATACATTGA at or over 1 in terms of PBM binding z-score?
Result string: criterion met

Query string: Confirm if PBM binding z-score reported for the sequence AGAATGAGGCTACCAAAGATCAGGGAAACGCTTG is 1 or above.
Result string: criterion not met

Query string: Is it the case that CCTACTGGGCCATCAGGTCATTGACATCAACGTT has PBM binding z-score reaching or exceeding 1?
Result string: criterion met

Query string: Is reported PBM binding z-score greater than or equal to 1 here: ACTAGAAGGCCAAGTTTGGGTCACTCAAACAAAG
Result string: criterion not met

====

Test system: PPARg:RXRa IVT, anti-PPARg (NR concentration 270 nM, RXRa partner concentration 90 nM)
Assay: PBM binding z-score (relative to random genomic background probes); higher = stronger binding; sequences stand for … in GC…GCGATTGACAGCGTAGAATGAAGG
# thresholds on PBM binding z-score define classes: Low: < 1; Mid: ≥ 1 and < 3; High: ≥ 3

Query string: Returns: class label. Input: AGAATGAGGTGATTAAGATCAGGGAATTGCGGTC
Result string: Mid

Query string: Kindly identify the class of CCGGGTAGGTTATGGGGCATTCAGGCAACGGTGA .
Result string: Mid

Query string: Given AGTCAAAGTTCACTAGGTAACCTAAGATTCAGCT , name the class its PBM binding z-score places it in.
Result string: High

Query string: Please indicate the class for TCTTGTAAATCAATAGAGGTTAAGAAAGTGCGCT based on its PBM binding z-score.
Result string: Low

Query string: Which band does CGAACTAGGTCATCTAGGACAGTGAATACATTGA fall in?
Result string: High

Query string: Which PBM binding z-score category applies to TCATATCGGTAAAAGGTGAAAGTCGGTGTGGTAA here?
Result string: High

Query string: Class (by measured PBM binding z-score) for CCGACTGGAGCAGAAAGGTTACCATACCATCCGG
Result string: Low

Query string: Class? Entry: TCTAGTTGGTCACGGAGGTCACCCACGACGGGTA
Result string: High

Query string: Pick a category. Item: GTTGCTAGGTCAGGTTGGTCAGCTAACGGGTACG
Result string: High

Query string: In plain terms, what class is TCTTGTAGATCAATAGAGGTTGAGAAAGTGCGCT ?
Result string: Low

Query string: Exam item: assign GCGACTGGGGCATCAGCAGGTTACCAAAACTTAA to the correct category.
Result string: High

Query string: Lab note: which band did CGAACTAGGTCATTGACAGGAGAGTGAATAGTAA land in?
Result string: High

Query string: Kindly state the category for this sequence: GATACAGGGTCAGCTAGAGGCCCGAGTATGGAAA
Result string: Mid

Query string: Categorize the following entry: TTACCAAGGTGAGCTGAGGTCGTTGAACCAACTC
Result string: Mid

Query string: Kindly state the category for this sequence: CCTGCTAGGTCATGGTCAGTTAATCTACAGTATG
Result string: High

Query string: Which bin should I file CCTGCTAGGTCATGGTCAGCTCATCTACAGTATG under?
Result string: High

Query string: Class (by measured PBM binding z-score) for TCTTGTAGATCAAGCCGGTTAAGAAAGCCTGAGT
Result string: Low

Query string: Category of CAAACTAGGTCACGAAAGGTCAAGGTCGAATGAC :
Result string: High

Query string: Exercise: read the entry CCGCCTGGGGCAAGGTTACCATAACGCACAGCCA and state which class it falls under.
Result string: Low

Query string: Given CGTCCAAGATCAATGCTAGGTCAGTGAAAGCATT , name the class its PBM binding z-score places it in.
Result string: Low

Query string: In plain terms, what class is CGTCCAAGGTCAAAGGTCGGTGAAGAGATGACGG ?
Result string: High

Query string: In plain terms, what class is CTCGAGAGGTCGTGCTCAGGTGAGTATACCAAAC ?
Result string: Mid

Query string: Textbook exercise: identify the category of the sequence given here, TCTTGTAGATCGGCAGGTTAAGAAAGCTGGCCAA , according to its measured value.
Result string: Low

Query string: Class (by measured PBM binding z-score) for TCGAGTAGGCTAGGGGCATTCAGAATGGCGTCGA
Result string: Low

Query string: Given TCATATAGGTACATGCTAGGTGAAAGTCCGATCT , name the class its PBM binding z-score places it in.
Result string: Mid

Query string: Class? Entry: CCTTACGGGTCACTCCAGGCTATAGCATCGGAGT
Result string: High

Query string: For the record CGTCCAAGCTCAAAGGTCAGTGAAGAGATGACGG , report the class its PBM binding z-score corresponds to.
Result string: Mid

Query string: Sort into band: CCTTACCGGTCACTGACAGGTTATAGCATTTGGA
Result string: Mid

Query string: Which of the defined bands does the recorded PBM binding z-score of GCGACTGGGGCGAAGCAGGTTACCATAAGGTTGG sit within?
Result string: Low

Query string: Please report the category associated with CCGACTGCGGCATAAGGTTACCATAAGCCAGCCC , nothing else.
Result string: Low

Query string: Into which bin does this sequence go? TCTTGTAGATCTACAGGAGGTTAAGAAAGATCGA
Result string: Low

Query string: # classify by PBM binding z-score band: TCAGACAGGTGGAGGTAACTCAGGTACGCAGTCG
Result string: Low

Query string: Lab note: which band did TCATATAGGTAAATGCTAGGTGAAACTCCGATCT land in?
Result string: Mid

Query string: Record AGAATGAGGTTAAGATCAGTGAAACAGAATACAT — which class?
Result string: Mid

Query string: # bin lookup: classify AGTCAAAGTTCAGGACGAGGTAACGTAAAGCACG by its PBM binding z-score
Result string: Mid

Query string: Using the reported PBM binding z-score, which band applies to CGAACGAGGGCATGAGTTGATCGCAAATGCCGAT ?
Result string: Mid

Query string: Lab note: sort TTACCAAGGTGAAAGGTTGTTGATGCACGCCTTG into the matching PBM binding z-score band.
Result string: High

Query string: Which category fits this record: ATCTCTAGGTAAAAATAGTTCAGTGAATGCAAAT
Result string: Mid

Query string: Category of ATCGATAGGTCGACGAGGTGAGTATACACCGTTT , please.
Result string: Low

Query string: For TAGTCTAGGTCATGGGCCAGTATACCACGCGAAC , which PBM binding z-score bin applies?
Result string: High

Query string: Category of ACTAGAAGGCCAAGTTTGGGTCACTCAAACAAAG :
Result string: Mid

Query string: Into which bin does this sequence go? TAGCCTAGGTCATTCAGGGGCCTGTATAGAAAGC
Result string: Mid

Query string: Bin? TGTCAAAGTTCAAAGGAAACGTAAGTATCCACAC
Result string: High

Query string: Categorize the following entry: CGTCCAAGGTCAAAGGACAGTGAAGAGATGACGG
Result string: High

Query string: Class label required: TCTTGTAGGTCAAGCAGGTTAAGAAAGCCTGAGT
Result string: High

Query string: Hello team, could you let me know which band the following sequence falls into: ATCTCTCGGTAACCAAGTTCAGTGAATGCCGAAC
Result string: Low

Query string: Category of ATATGTAGGTTAGCTAGGGTCATTCAGACTAGGC :
Result string: High

Query string: # bin lookup: classify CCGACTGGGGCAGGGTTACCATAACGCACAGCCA by its PBM binding z-score
Result string: Mid

Query string: Category lookup for the sequence CAAACTAGGCCACGAAAGGTCAAAGTCGAATGAC
Result string: High

Query string: Given GGTACGAGGGCAAGTTGATAGCAGAGTTTGATGG , name the class its PBM binding z-score places it in.
Result string: Mid

====

Tested on: PPARg:RXRa 270nM:90nM, anti-RXR (NR concentration 270 nM, RXRa partner concentration 90 nM)
Test: PBM binding z-score (relative to random genomic background probes); higher = stronger binding; sequences stand for … in GC…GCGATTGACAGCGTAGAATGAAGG
Assignment: determine reported PBM binding z-score for the given sequences.
Respond numerically, and do not add a unit to the figure.

The value of PBM binding z-score measured for the sequence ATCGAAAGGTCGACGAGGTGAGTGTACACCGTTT turned out to be 3.72

Record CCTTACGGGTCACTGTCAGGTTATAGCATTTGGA , field PBM binding z-score: 4.04

Just so you know, measured PBM binding z-score for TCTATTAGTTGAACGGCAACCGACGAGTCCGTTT came out at 1.87

Sample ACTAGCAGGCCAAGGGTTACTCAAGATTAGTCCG ; PBM binding z-score observed: 5.61

Entry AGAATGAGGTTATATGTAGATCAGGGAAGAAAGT — recorded PBM binding z-score = 2.5

The recorded PBM binding z-score for entry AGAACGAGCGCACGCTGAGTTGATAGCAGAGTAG equals -0.706

What the record says about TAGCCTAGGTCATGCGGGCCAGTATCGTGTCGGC : PBM binding z-score is 2.29

Looking up ACTTACGGGTCAACGAGGTTAAAGCACGCGTATA , I found its PBM binding z-score recorded as 5.57

PBM binding z-score recorded for this sequence, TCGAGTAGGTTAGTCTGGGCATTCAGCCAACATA , is 0.528

Entry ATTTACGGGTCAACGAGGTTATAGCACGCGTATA — recorded PBM binding z-score = 6.17

Entry GCTAGTTGGTCAGTAAAAGGTCACACCCCGGTCG , PBM binding z-score reported as 4.11

Short answer for ATCTCTAGTTAAAGATAGTTCAGTGAATGCAAAT : PBM binding z-score was 0.484

Summary for this sequence, TCTATTAGTTGAAGGTCAACCGACGAGTCCGTTT : PBM binding z-score is 3.57

Per the records, this sequence ( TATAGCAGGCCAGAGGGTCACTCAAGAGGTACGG ) has PBM binding z-score equal to 3.15

Kindly note the recorded PBM binding z-score for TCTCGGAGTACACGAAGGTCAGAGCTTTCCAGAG , which is 1.35

The sequence listed as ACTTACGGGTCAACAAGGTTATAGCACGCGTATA shows PBM binding z-score equal to 5.32

For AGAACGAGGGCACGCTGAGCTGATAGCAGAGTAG the sequence record lists PBM binding z-score as 1.81

Reported PBM binding z-score of ATATGTAGGGTATCGGGTCATTCAGTTTGCGCAT : 5.05

// field: PBM binding z-score; key: AGAATGCGGTTATTAAGATCAGGGAATTGCGGTC ; value = -0.202

The recorded PBM binding z-score for entry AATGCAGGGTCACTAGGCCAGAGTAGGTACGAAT equals 6.77

The sequence TCATATGGGTAATACAGGTGAAAGTCGGCATCTA showed PBM binding z-score equal to 2.13

Input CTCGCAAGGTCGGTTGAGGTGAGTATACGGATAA . Output PBM binding z-score: 0.131

AGAATGAGGTTATTAAGATCAGGGCATTGCGGTC has a reported PBM binding z-score of 2.33

The sequence AGCATGAGGTTATACGTAGATCAGGGAAGAAAGT showed PBM binding z-score equal to 0.729

Measured PBM binding z-score, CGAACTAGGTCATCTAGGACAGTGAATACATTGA : 6.44

Record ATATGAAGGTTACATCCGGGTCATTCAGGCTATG . Reported PBM binding z-score: 2.52
